Would you mind telling me the reported LRRK2 pIC50 of each entry?
Target desc: GST-tagged truncated human mutant G2019S LRRK2 (Homo sapiens (Human), UniProt Q5S007, G2019S)
Sequence (Q5S007 970-2527 G2019S): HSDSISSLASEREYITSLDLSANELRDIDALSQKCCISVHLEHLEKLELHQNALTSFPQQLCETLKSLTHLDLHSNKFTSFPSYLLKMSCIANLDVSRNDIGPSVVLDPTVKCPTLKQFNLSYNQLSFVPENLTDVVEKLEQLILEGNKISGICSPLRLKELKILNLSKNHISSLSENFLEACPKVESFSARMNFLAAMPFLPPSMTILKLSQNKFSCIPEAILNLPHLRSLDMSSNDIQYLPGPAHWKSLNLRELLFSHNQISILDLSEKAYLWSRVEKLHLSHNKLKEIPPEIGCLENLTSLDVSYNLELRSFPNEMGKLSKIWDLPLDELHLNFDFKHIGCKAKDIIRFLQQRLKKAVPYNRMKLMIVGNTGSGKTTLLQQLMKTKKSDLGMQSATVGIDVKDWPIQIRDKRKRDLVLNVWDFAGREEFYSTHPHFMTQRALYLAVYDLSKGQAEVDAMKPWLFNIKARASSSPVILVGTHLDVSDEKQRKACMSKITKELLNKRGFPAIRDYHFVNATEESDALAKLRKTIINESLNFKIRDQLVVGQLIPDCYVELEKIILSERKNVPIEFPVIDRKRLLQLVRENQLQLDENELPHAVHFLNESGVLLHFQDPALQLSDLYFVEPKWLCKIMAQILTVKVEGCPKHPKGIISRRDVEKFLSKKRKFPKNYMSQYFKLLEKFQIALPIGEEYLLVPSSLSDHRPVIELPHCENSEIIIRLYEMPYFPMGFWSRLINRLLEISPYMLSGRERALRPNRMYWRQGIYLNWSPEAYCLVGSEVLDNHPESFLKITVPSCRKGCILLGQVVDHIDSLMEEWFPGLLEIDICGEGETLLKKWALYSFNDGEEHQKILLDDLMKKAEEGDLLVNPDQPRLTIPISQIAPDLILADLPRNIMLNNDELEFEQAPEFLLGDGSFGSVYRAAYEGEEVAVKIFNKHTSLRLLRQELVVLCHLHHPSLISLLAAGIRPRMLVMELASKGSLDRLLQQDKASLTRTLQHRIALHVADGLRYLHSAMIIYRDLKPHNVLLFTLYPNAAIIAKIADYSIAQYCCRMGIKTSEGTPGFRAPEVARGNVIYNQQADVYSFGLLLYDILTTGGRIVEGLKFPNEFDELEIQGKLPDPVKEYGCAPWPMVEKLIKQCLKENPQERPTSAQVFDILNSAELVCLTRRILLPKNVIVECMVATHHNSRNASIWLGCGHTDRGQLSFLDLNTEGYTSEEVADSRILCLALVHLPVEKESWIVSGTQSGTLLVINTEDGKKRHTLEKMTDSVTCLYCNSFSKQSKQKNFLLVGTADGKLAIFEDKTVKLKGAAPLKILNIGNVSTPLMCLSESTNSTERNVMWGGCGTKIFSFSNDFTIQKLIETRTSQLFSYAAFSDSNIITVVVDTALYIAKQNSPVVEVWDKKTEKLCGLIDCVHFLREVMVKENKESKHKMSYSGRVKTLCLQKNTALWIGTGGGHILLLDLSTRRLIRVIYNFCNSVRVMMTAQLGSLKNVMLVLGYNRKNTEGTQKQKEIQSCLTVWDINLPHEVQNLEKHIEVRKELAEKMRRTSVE
Assay info: LRRK2 G2019S Km ATP LanthaScreen assay
Format: biochemical
Condition details: G2019S LRRK2, 134 μM ATP (Km ATP), LRRKtide substrate
Source text: Unless otherwise noted, all reactions are magnetically allowed to stir, diethyl ether used in the experiments described below is Fisher ACS certified material stabilized with BHT, and “concentrated” and/or “solvent removed under reduced pressure” means evaporating the solvent from a solution or mixture using a rotary evaporator or vacuum pump. […]
Quick one: just the number, no unit, thanks!

Item: Cc1nn(C2CCC2)c2c1OC[C@@H]1CN(CCO1)c1nc(ncc1C(F)(F)F)N2 (single isomer, unassigned) | LRRK2 pIC50: 8.07

// field: LRRK2 pIC50; key: CC(C)c1nn(C(C)(C)C#N)c2c1Nc1ncc(C(F)(F)F)c(n1)N[C@@H]1COC[C@H]1CO2 ; value = 8.66

Lookup result for Cc1nn(C2CCC2)c2c1OC[C@@H]1COCC[C@H]1Nc1nc(ncc1C(F)(F)F)N2 [Ex-2.33] ; measured LRRK2 pIC50: 9.11

# LRRK2 pIC50 (molecule: Cc1nn(C2CCC2)c2c1OC1COC[C@H]1CNc1nc(ncc1C(F)(F)F)N2 (single isomer, unassigned) [Ex-2.81] ) is 5.99

Note to self: LRRK2 pIC50 recorded for Cc1cnc2c(c1)Nc1ncc(C(F)(F)F)c(n1)N[C@@H]1COC[C@H]1CO2 was 9.15
